System: SF-539 CNS
protocol-description: NCI-60 one-dose screen, 48 h (100 = growth as untreated, 0 = no growth, -100 = all killed)
condition-notes: 10 µM unless noted
About 83,000 compounds went through this panel and 20% of them were active in at least one assay; those are over-represented in the sample as a whole.
Give growth for every item shown.
Numbers only, in %.

molecule | target-or-test-system | unit-tag | growth
COc1ccc2c(c1)[nH]c(=O)c1c3cccnc3cn21 | SF-539 CNS | % | 8.85
Cn1c(-c2c(N)n(Cc3cccnc3)c3nc(C#N)c(C#N)nc23)nc2ccccc21 | SF-539 CNS | % | 64.7
O=C1NC(=Nc2ccc(Cl)cc2)S/C1=C\c1cn(-c2ccccc2)nc1-c1ccccc1 | SF-539 CNS | % | 81
COc1ccc(-c2nc3ccc4[nH]ncc4c3c3c2CCCC3)cc1B(O)O | SF-539 CNS | % | 52.8
COc1ccc2[nH]c(O)c(/C=c3/cc4c(c(-c5ccc(F)c(OC)c5)n3)=Nc3ccccc3-4)c2c1 | SF-539 CNS | % | 64.3
O=C(Nc1ccccc1-c1nc2ccccc2c(=O)[nH]1)c1cc2ccccc2[nH]1 | SF-539 CNS | % | 89.5

Here are 3 molecules. What values of growth were reported for them?
1. COc1ccc(-c2c(N)n[nH]c2-c2ccc(Cl)cc2O)cc1OC
2. O=[N+]([O-])c1ccc(OCCO)cc1
3. COc1ccc(C2C(c3nn[nH]n3)=C(N)Oc3c2ccc2ccccc32)cc1 (stereo not given)

[reply]
100
108
73.7

Here are 2 molecules. What values of growth were reported for them?
1. Cc1ccc(Nc2ccc(Nc3ccc(C)cc3)c3c2C(=O)c2cccc(O)c2C3=O)cc1
2. Oc1c(CN2CCCC2)cc(COCc2ccc(Br)cc2)c2cccnc12

[reply]
1. 105
2. -23.5

Here are 7 molecules. What values of growth were reported for them?
1. N#Cc1c2c(nn(-c3ccccc3)c1=O)C(O)=C([N+](=O)[O-])C(c1ccccc1)C2 (stereo not given)
2. O=S(=O)(Nc1cccc(Cl)c1)c1ccc(-c2cnc(C3CC3)o2)cc1
3. Cc1ccc(/C=C2\C(=O)N(C)c3ccc(S(=O)(=O)Nc4ccc(C(C)(C)C)cc4)cc32)s1
4. COc1cccc(-c2nn(-c3ccccc3)cc2-c2ccnc(NCCNC(=O)Nc3ccc(Cl)c(Cl)c3)c2)c1
5. Cc1c2c(c(C)c3c1oc1cc(O)ccc13)C(=O)N(CCN1CCCCC1)C2=O
6. O=C(Nc1ccccc1Cl)Oc1ccc(-c2ccccc2)cc1
7. CN1CCN(CC(=O)Nc2nc(-c3cccc(NS(=O)(=O)c4cccc5c(N(C)C)cccc45)c3)cs2)CC1

[reply]
1. 83
2. -0.0211
3. 19.4
4. -0.925
5. 91.6
6. 95.1
7. 75.6

Here are 2 molecules. What values of growth were reported for them?
1. COc1ccc(CNC(=O)C(O)C(Cc2ccccc2)NC(=O)c2[nH]c3ccccc3c(=O)c2C)cc1OC (stereo not given)
2. Cc1ccc(S(=O)(=O)Oc2cc(OS(=O)(=O)c3ccc(C)cc3)cc(OS(=O)(=O)c3ccc(C)cc3)c2)cc1

[reply]
107
95

====

Tested on: K-562 leukemia
protocol-description: NCI-60 one-dose screen, 48 h
condition-notes: 10 µM unless noted
Compounds without any hit were thinned out: in the full panel of roughly 83,000, 20% have a hit. Calls of active or inactive are those of the source. How the source made its calls: active means growth percent below 10; inactive means the rest.
Hi there, use one of these labels in your reply, thanks! active, inactive

molecule | target-or-test-system | label-value
c1cc2ccc3cc2cc1CNCCOCCNCc1ccc2ccc(cc2c1)CNCCOCCNC3 | K-562 leukemia | active

[ask] How was CCN1C(=O)N(CC)C2Nn3c(s/c(=C\c4ccc(Cl)cc4Cl)c3=O)=NC21 (centres undefined) classified in this test?
[reply] inactive

[ask] How was O=C(CSc1nnc(-c2ccc(NC(=O)c3cccnc3)cc2)o1)N[C@@H](Cc1ccc(O)cc1)C(=O)O classified in this test?
[reply] inactive

[ask] How was COc1cc(/C=N/n2c(CN3CCOCC3)nc3ccccc3c2=O)cc(OC)c1OC classified in this test?
[reply] inactive

[ask] How was Clc1cccc(Cl)c1C(Nc1nc2ccccc2s1)Nc1nc2ccccc2s1 classified in this test?
[reply] inactive

[ask] How was CN(C)c1ccc(-c2ccc3[nH]c(=O)nc(-c4ccccc4)c3c2)cn1 classified in this test?
[reply] active

====

System: SF-268 CNS
protocol-description: NCI-60 one-dose screen, 48 h
condition-notes: 10 µM unless noted
About 83,000 compounds went through this panel and 20% of them were active in at least one assay; those are over-represented in the sample as a whole. Activity calls are given as the source filed them. How the source made its calls: active means growth percent below 10; inactive means the rest.
Hi there, use one of these labels in your reply, thanks! y (active), n (inactive)

molecule | target-or-test-system | label-value
Cc1cccc(-c2nc(N(C)c3ccc4ncsc4c3)c3ccccc3n2)n1 | SF-268 CNS | n
CCCCCCCCCCCC(c1ccccc1)[N+](C)(C)C (stereo not given) | SF-268 CNS | n
O=C(Nc1cccc(C(F)(F)F)c1)Nc1cccc(C(F)(F)F)c1 | SF-268 CNS | n
COc1cc(/C=C2\C(=O)ON=C2C)cc(OC)c1OC | SF-268 CNS | n
COc1ccc(NC(=O)CSc2nc(C)c(C(C)=O)n2-c2ccc([N+](=O)[O-])cc2)cc1 | SF-268 CNS | n

[ask] How was O=C1Nc2ccc(F)cc2C12Nc1cc(Cl)ccc1S2 (stereo not given) classified in this test?
[reply] n

[ask] How was Cc1ccc(C(=NN=C(N)N)c2ccc(C)cc2)cc1 classified in this test?
[reply] n

[ask] How was C[C@]12CC[C@@H]3c4cc(OC(F)F)c(O)cc4CC[C@H]3[C@@H]1CC[C@@H]2OS(N)(=O)=O classified in this test?
[reply] n

[ask] How was COc1ccc(N=C(c2ccccc2)C2C(=O)c3ccccc3C2=O)cc1 classified in this test?
[reply] n

[ask] How was O=C1c2cccc(NCCN=Cc3cc([N+](=O)[O-])ccc3O)c2C(=O)c2c(NCCN=Cc3cc([N+](=O)[O-])ccc3O)cccc21 classified in this test?
[reply] n

[ask] How was NC[C@H](O)c1ccc(O)c(O)c1 classified in this test?
[reply] n

[ask] How was O=C(NCCc1ccc(O)c(O)c1)C12CC3CC(CC(C3)C1)C2 classified in this test?
[reply] n

[ask] How was CC(CCc1ccc(Cl)c(Cl)c1)NCc1ccc(C(C)(C)C)cc1 (stereo not given) classified in this test?
[reply] n

[ask] How was N=C1C(c2nc(-c3ccc(Br)cc3)cs2)=C(O)CN1Cc1cccnc1 classified in this test?
[reply] n

[ask] How was COCCc1ccc(OCC(O)CNC(C)C)cc1 (stereo not given) classified in this test?
[reply] n

[ask] How was COC(=O)CCC1=C(C)C2=NC1=CC1=NC(=CC3=NC(=Cc4[nH]c(/c(=C(/C)O)c4C)=C2)C(C(C)=O)=C3C)C(C)=C1CCC(=O)OC classified in this test?
[reply] n

[ask] How was Cc1cc(NCCCCNc2ccnc3cc(Cl)ccc23)nc(Nc2ccc(C(=O)N3CCCCC3)cc2)n1 classified in this test?
[reply] y

[ask] How was COc1ccccc1NC(=O)N/C(N)=N/c1nc2ccccc2s1 classified in this test?
[reply] n

[ask] How was CCC(CO)Nc1nc2ccc(Cl)cc2c2ccccc12 (stereo not given) classified in this test?
[reply] n

[ask] How was CCc1c2c(nc3ccc(OC(=O)OCc4ccc(B5OC(C)(C)C(C)(C)O5)cc4)cc13)-c1cc3c(c(=O)n1C2)COC(=O)[C@]3(O)CC classified in this test?
[reply] y

[ask] How was CC1O[C@@H](OC2[C@H](OC(=O)/C=C/c3ccc(O)c(O)c3)C(COC3O[C@H](C)C(O)C(O)[C@@H]3O)O[C@@H](OCCc3ccc(O)c(O)c3)[C@H]2O)[C@@H](O)C(O)[C@H]1O (stereo not given in full) classified in this test?
[reply] n

[ask] How was N=c1sc(Cc2ccc(Cl)cc2)cn1CC(=O)c1ccc(F)cc1 classified in this test?
[reply] n

[ask] How was COc1ccc(NC(=O)CSc2nc(C)c(C(C)=O)n2-c2ccc(Cl)cc2)cc1 classified in this test?
[reply] n

[ask] How was O=C(Nc1ccccc1Cl)Oc1ccc(-c2ccccc2)cc1 classified in this test?
[reply] n

====

Test system: COLO 205 colon
protocol-description: NCI-60 one-dose screen, 48 h
condition-notes: 10 µM unless noted
This is part of a sample that, as a whole, favours compounds with a hit. Of some 83,000 tested, about 20% had one in any assay. The source made the active and inactive calls. How the source made its calls: active means growth percent below 10; inactive means the rest.
Hi there, use one of these labels in your reply, thanks! y (active), n (inactive)

Use the examples below as a reference point.
compound | label-value
CCN(CC)c1ccc2nc3c4ccccc4c(=NC(=O)c4ccccc4-c4c5ccc(N(CC)CC)cc5[o+]c5cc(N(CC)CC)ccc45)cc-3oc2c1 | y
NS(=O)(=O)c1cnccc1Sc1ccncc1S(N)(=O)=O | n
NS(=O)(=O)c1ccc(-n2nc(C(=O)N/N=C\c3ccc(F)cc3)cc2-c2ccc(Cl)cc2)cc1 | n

[ask] How was CCCCCc1nc2c(c3c1CCCC3)CCCC2 classified in this test?
[reply] n

[ask] How was CC1=NOC(=O)/C1=C\c1ccc(O)cc1 classified in this test?
[reply] n

[ask] How was O=C(NC(CSSCC(NC(=O)c1ccccc1)C(=O)O)C(=O)O)c1ccccc1 (stereo not drawn) classified in this test?
[reply] n
